The reported measurements were obtained from patent US20090297524A1.

- measurementTarget: T1, Recombinant human CD40L (human, UniProt P29965 108-261, limits assumed)
- T1 construct: also called CD40 ligand
- T1 sequence (looked up): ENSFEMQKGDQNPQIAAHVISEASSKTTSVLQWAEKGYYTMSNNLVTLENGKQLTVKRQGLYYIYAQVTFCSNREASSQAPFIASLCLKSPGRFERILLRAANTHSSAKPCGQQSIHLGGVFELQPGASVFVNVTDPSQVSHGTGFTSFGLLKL
- methodDescription: CD40L/CD40-Fc receptor binding assay;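 further: plate assay with coated human CD40-Fc, bound ligand detected via HRP anti-biotin antibody and TMB, OD at 450 nm, lower signal indicates stronger inhibition by dAb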
quantityMeasured: binding result

INSERT INTO assay_data (binder, result) VALUES
  ('DOM.105 (other, Vk dAb) VL: DIQMTQSPSSLSASVGDRVTITCRASQAIGHRLRWYQQKPGKAPKLLIYHRSKLQSGVPSRFSGSGSGTDFTLTISSLQPEDFATYYCQQSYARPVTFGQGTKVEIKR', 'binds'),
  ('DOM-72 (other, VH dAb) VH: EVQLLESGGGLVQPGGSLRLSCAASGFTFEAYPMSWVRQAPGKGLEWVSSISPLGLWTYYADSVKGRFTISRDNSKNTLYLQMNSLRAEDTAVYYCAKLSAGAETHVYRLFDYWGQGTLVTVSS', 'binds'),
  ('DOM-36 (other, Vk dAb) VL: DIQMTQSPSSLSASVGDRVTITCRASQDIDHNLEWYQQKPGKAPKLLIYDSSMLQSGVPSRFSGSGSGTDFTLTISSLQPEDFATYYCQQYHSIPVTFGQGTKVEIKR', 'binds'),
  ('DOM.180 (other, VH dAb) VH: EVQLLESGGGLVQPGGSLRLSCAASGFTFTDYEMGWVRQAPGKGLEWVSTITSLGESTYYADSVKGRFTISRDNSKNTLYLQMNSLRAEDTAVYYCAKPGRIFDYWGQGTLVTVSS', 'binds');
